Biological target: T1, FZD5 CRD (Homo sapiens, UniProt Q13467)
T1 construct: K29-T156; GPI anchor signal (C); expressed in transfected cells; host or cells: CHO cells, lentiviral pLenti-puro
T1 sequence (Q13467 29-156): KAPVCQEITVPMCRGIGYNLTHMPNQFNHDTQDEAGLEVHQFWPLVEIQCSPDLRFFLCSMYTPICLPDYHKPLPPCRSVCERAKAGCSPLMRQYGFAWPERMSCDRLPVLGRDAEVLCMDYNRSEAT
Test: Immunofluorescence of anti-FZD5 Fab binding to CHO cells overexpressing Frizzled CRD
Parameters: key: −: no binding; +: very weak binder; ++: weak binder; +++: good binder; ++++: very good binder
outcome.measure: Immunofluorescence binding, Frizzled CRD overexpressed on CHO cells: FZD5

Fab-2932: anti-FZD5 Fab with antibody variable region Fv-2932; CDR SEQ ID NOs: 35, 36, 71, 108, 147, 153 (antibody, V domains shown) VH: EVQLVESGGGLVQPGGSLRLSCAASGFNISYSYMHWVRQAPGKGLEWVASIYSSYSSTSYADSVKGRFTISADTSKNTAYLQMNSLRAEDTAVYYCARGALDYWGQGTLVTVSS VL: DIQMTQSPSSLSASVGDRVTITCRASQSVSSAVAWYQQKPGKAPKLLIYSASSLYSGVPSRFSGSRSGTDFTLTISSLQPEDFATYYCQQWYGSFALITFGQGTKVEIK ... ++++

Data origin: patent US20210253718A1
